# Method: Toxicity liver stage against HepG2, at 10uM
# Type: cell-based
# Design: test concentration 10 uM, cell line HepG2-A16-CD81EGFP
# Test conditions: human, HepG2-A16-CD81EGFP cells; read-out: INHIBITION
This listing pairs compounds with measured cytotoxicity at 10 µM.
Give the number; % is assumed, so skip it.

# example entries with known answers
| Compound | cytotoxicity at 10 µM / % |
| --- | --- |
| c1ccc2ncc(CC3CNCCOC3)cc2c1 (stereo not drawn) | -3.93 |
| Cc1cc(NC(=O)N2CCCC(CO)C2)nn1-c1ccccc1Cl (stereo not drawn) | 8.23 |
| CCN1CCN(C)C(=O)C12CCN(Cc1ccsc1)CC2 | 1.14 |
| CC(=O)NCCCNCc1ccc(Cl)c2cccnc12 | -3.17 |

Which cytotoxicity at 10 µM value is on record for CSCC(CCO)NC(=O)Nc1cc(Br)ccc1C (stereo not drawn) ?
-11.1

Source: ChEMBL document CHEMBL4513216
